measured on: T1, biotinylated 6His tag-AviTag-linked mature human IL-33 (residues 112 to 270) (human, UniProt O95760 112-270, biotin on the AviTag portion (BirA))
T1 construct: made in E. coli; also called biotinylated human IL-33 protein
T1 sequence: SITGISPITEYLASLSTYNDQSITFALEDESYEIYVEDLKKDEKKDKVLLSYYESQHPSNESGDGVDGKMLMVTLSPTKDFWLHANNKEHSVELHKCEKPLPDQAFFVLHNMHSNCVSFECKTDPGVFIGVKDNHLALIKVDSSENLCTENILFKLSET
method summary: SPR, IL-33 on chip, Fab supernatant as analyte
Procedure: The library after the enrichment was used to construct a library of Escherichia coli secreting and expressing Fab. […] The sensorgram was subjected to interspot correction and blank correction using an SPR data analysis program (ProteOn Manager v3.1.0, available from Bio-Rad Laboratories, Inc.), and then values of koff were determined by off-rate analysis of Langmuir model.
observable: koff (s⁻¹)

A26-2B01 (Fab) (Fab, V domains shown, Fab secreted by E. coli, tested as culture supernatant; also called V20) VH: EVQLLESGGGLVQPGGSLRLSCAASGFTFSNYYMHWVRQAPGKGLEWVSSISARSSYIYYADSVKGRFTISRDNSKNTLYLQMNSLRAEDTAVYYCARLATRHNAFDIWGQGTLVTVSS VL: QSVLTQPPSASGTPGQRVTISCSGSSSNIGNNAVNWYQQLPGTAPKLLIYASNMRRLGVPDRFSGSKSGTSASLAISGLRSEDEADYYCAAWDDSQKAWVFGGGTKLTVL | 1e-05
A25-2C07 (Fab) (Fab, V domains shown, Fab secreted by E. coli, tested as culture supernatant; also called V13) VH: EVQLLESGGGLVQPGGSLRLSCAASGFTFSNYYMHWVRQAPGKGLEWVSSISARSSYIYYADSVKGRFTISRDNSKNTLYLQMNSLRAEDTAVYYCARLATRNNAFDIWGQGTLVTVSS VL: QSVLTQPPSASGTPGQRVTISCSGSSSNIGNNAVNWYQQLPGTAPKLLIYASNMRGSGVPDRFSGSKSGTSASLAISGLRSEDEADYYCAAWDDSQKGQVFGGGTKLTVL | 3.41e-05
A12-1E04 (Fab) (Fab, V domains shown, Fab secreted by E. coli, tested as culture supernatant; also called V2) VH: EVQLLESGGGLVQPGGSLRLSCAASGFTFSDYYMNWVRQAPGKGLEWVSSISRYSGYVYYADSVKGRFTISRDNSKNTLYLQMNSLRAEDTAVYYCARDIGGMDVWGQGTLVTVSS VL: QSVLTQPPSASGTPGQRVTISCTGSSSNIGAVYDVHWYQQLPGTAPKLLIYRNNQRPSGVPDRFSGSKSGTSASLAISGLRSEDEADYYCQSYDSSRWVFGGGTKLTVL | 2.19e-05
A28-1C08 (Fab) (Fab, V domains shown, Fab secreted by E. coli, tested as culture supernatant; also called V23) VH: EVQLLESGGGLVQPGGSLRLSCAASGFTFSRYYMHWVRQAPGKGLEWVSSISARSSYIYYADSVKGRFTISRDNSKNTLYLQMNSLRAEDTAVYYCARLATRRDAFDIWGQGTLVTVSS VL: QSVLTQPPSASGTPGQRVTISCSGSSSNIGRNAVSWYQQLPGTAPKLLIYASNMRRLGVPDRFSGSKSGTSASLAISGLRSEDEADYYCWAWDDSQKAVVFGGGTKLTVL | 1e-05
A25-2H11 (Fab) (Fab, V domains shown, Fab secreted by E. coli, tested as culture supernatant; also called V14) VH: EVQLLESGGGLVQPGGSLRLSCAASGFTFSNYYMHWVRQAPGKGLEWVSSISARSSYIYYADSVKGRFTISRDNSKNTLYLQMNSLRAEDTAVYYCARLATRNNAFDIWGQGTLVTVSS VL: QSVLTQPPSASGTPGQRVTISCSGSSSNIGSNAVSWYQQLPGTAPKLLIYASNMRGSGVPDRFSGSKSGTSASLAISGLRSEDEADYYCAAWDDSQKVVVFGGGTKLTVL | 1.22e-05
A26-2A05 (Fab) (Fab, V domains shown, Fab secreted by E. coli, tested as culture supernatant; also called V19) VH: EVQLLESGGGLVQPGGSLRLSCAASGFTFSNYYMHWVRQAPGKGLEWVSSISARSSYIYYADSVKGRFTISRDNSKNTLYLQMNSLRAEDTAVYYCARLATRHGAFDIWGQGTLVTVSS VL: QSVLTQPPSASGTPGQRVTISCSGSSSNIGNNAVNWYQQLPGTAPKLLIYASNMRRMGVPDRFSGSKSGTSASLAISGLRSEDEADYYCAAWDDSQKAFVFGGGTKLTVL | 1e-05
A23-1A05 (Fab) (Fab, V domains shown, Fab secreted by E. coli, tested as culture supernatant; also called V8) VH: EVQLLESGGGLVQPGGSLRLSCAASGFTFSNYYMHWVRQAPGKGLEWVSSISARSRYHYYADSVKGRFTISRDNSKNTLYLQMNSLRAEDTAVYYCARLATRHNAFDIWGQGTLVTVSS VL: QSVLTQPPSASGTPGQRVTISCSGSSSNIGNNAVSWYQQLPGTAPKLLIYASNMRVIGVPDRFSGSKSGTSASLAISGLRSEDEADYYCGAWDDSQKALVFGGGTKLTVL | 1.58e-05
